System: MCF7
protocol: Cytotoxicity against human MCF7 cells after 4 days by MTT assay
Assay type: functional, cell-based
condition-parameters: MCF7, 96 h
Reported pIC50 values follow for various compounds
Worth noting: pIC50 values are minus log10 of concentrations stated in mol/L.

1) COc1cc([C@@H]2c3cc4c(cc3[C@@H](O[C@@H]3O[C@@H]5CO[C@@H](C)O[C@H]5[C@H](O)[C@H]3O)[C@H]3COC(=O)[C@H]23)OCO4)cc(OC)c1O [ETOPOSIDE] = 4.76
2) CC[C@@]1(O)C(=O)OCc2c1cc1n(c2=O)Cc2cc3ccccc3nc2-1 [CAMPTOTHECIN] = 4.85
3) COc1cccc2c(=O)c3c(OC)cc(OCC4CO4)cc3oc12 (centres undefined) = 5.10

Kindly note the recorded pIC50 for COc1cccc2c(=O)c3c(O)cc(OCC(C)(O)CCl)cc3oc12 (centres undefined) , which is 4.05

Reference source for all entries: ChEMBL document CHEMBL1240462
